tested on: SW-620; assay: NCI tumour cell line growth inhibition, 48 h
Calls of active or inactive are those of the source. Cut-off read from the data, not from the text of the source: active = GI50 up to about 1.1 µM and inactive = higher.
Listing of entries alongside the reported GI50.

- compound: "C[C@]12OC[C@H](c3ccccc3)N1C(=O)C1[C@H]2CC12SCCS2 (stereo partly specified)"
  quantity measured: "GI50"
  measured: "> 100 µM (inactive)"

Look up GI50 with SW-620 for this compound: Cc1cc2c(c(=O)n1C)SCC2
> 100 µM (inactive)

Field: GI50 (SW-620). Entry: CCCCCCCCCCCCSC(=S)c1c(C)[nH]n(CCCCCCCCCCCC)c1=O
77.6 µM (inactive)

Provide the documented GI50 with SW-620 as the system for CS(=O)(=O)Oc1cccc(/C=N/N=C(\N)NO)c1
19.9 µM (inactive)
